System: HuVECs
test: Endothelial tube formation assay in HuVECs
studyConditions: 75 nM oligomeric compound, Table 58
In the oligonucleotide strings, read from the 5' end, every base follows the letter of its sugar. An asterisk marks phosphorothioate; unmarked linkages are phosphodiester. Other units and linkages are bracketed, terminal groups are in braces. A string of capitals states the bases alone. e = 2'-O-(2-methoxyethyl) (MOE); [5mC] = 5-methylcytosine
Listing of entries alongside the reported % Activity Relative to UTC (tube formation).
Give just the number in %; leave the unit off.

Study these solved cases before continuing.
327937 (antisense eG*eA*eT*eT*e[5mC]*eA*e[5mC]*eA*eA*e[5mC]*eA*e[5mC]*e[5mC]*eA*eG*e[5mC]*eT) [compound 327937]; 88.9
327935 (antisense e[5mC]*eT*eA*e[5mC]*e[5mC]*eT*eG*e[5mC]*eA*e[5mC]*eT*eA*eT*eA*eA*eG*e[5mC]*eA*e[5mC]*eT*eT*eT*eA) [compound 327935]; 74.1
327943 (antisense eT*eA*eT*e[5mC]*eT*eG*e[5mC]*eA*e[5mC]*eT*eA*eG*eA*eT*eG*e[5mC]*eA*e[5mC]*e[5mC]*eT*eT*eA) [compound 327943]; 81.5

What measured % Activity Relative to UTC (tube formation) goes with 327944 (antisense eA*eA*eA*eG*eT*eG*eT*e[5mC]*eA*eG*eA*eT*eA*e[5mC]*eG*eG*eT*eG*eT*eG*eG) [compound 327944] ?
37.0

What measured % Activity Relative to UTC (tube formation) goes with 342672 (antisense eA*eT*eA*e[5mC]*e[5mC]*eG*e[5mC]*eG*eA*eT*e[5mC]*eA*eG*eT*eG*e[5mC]*eA*eT*e[5mC]*eT*eT*eT) [compound 342672] ?
55.6

What measured % Activity Relative to UTC (tube formation) goes with 327924 (antisense eG*e[5mC]*eA*eA*eG*e[5mC]*e[5mC]*e[5mC]*eA*eG*eA*e[5mC]*e[5mC]*eG*e[5mC]*eA*eA*eA*eA*eA*eG) [compound 327924] ?
88.9

What measured % Activity Relative to UTC (tube formation) goes with 327938 (antisense eA*eA*e[5mC]*eA*eA*eT*eA*e[5mC]*eA*eA*e[5mC]*eT*eT*eA*e[5mC]*eT*eA*e[5mC]*e[5mC]*eT*e[5mC]*eA) [compound 327938] ?
96.3

What measured % Activity Relative to UTC (tube formation) goes with 327945 (antisense e[5mC]*eT*eG*eT*eT*e[5mC]*e[5mC]*eT*eG*e[5mC]*eT*eG*eA*eA*e[5mC]*eT*eG*eA*eG*e[5mC]*e[5mC]*eA) [compound 327945] ?
59.3

What measured % Activity Relative to UTC (tube formation) goes with 327941 (antisense eA*eA*e[5mC]*e[5mC]*e[5mC]*eA*e[5mC]*e[5mC]*eG*eA*e[5mC]*eA*eG*e[5mC]*eA*eA*eT*eG*eA*eA*eT*eG*eT*eT) [compound 327941] ?
74.1

What measured % Activity Relative to UTC (tube formation) goes with 327930 (antisense eA*e[5mC]*eT*eA*eT*eA*e[5mC]*eA*eA*e[5mC]*e[5mC]*eT*e[5mC]*e[5mC]*eT*eA*e[5mC]*e[5mC]*eT*e[5mC]*eA) [compound 327930] ?
88.9

====

Listing of entries alongside the reported TG (triglyceride accumulation).
Tested on: adipocytes
test: Triglyceride accumulation assay in adipocytes
Format: cell-based, human
studyConditions: differentiating adipocytes transfected with oligomeric compound; Table 75
In the oligonucleotide strings, read from the 5' end, every base follows the letter of its sugar. An asterisk marks phosphorothioate; unmarked linkages are phosphodiester. Other units and linkages are bracketed, terminal groups are in braces. A string of capitals states the bases alone. e = 2'-O-(2-methoxyethyl) (MOE); [5mC] = 5-methylcytosine

Study these solved cases before continuing.
327971 (antisense eG*eG*eA*eA*eA*eT*e[5mC]*e[5mC]*e[5mC]*eT*eG*eG*e[5mC]*eA*eA*eT*eG*eT*eG*eA*eT) [compound 327971]; 45 percentage of untreated control (UTC)
327899 (antisense e[5mC]*eA*eG*eT*eG*eA*eA*eT*eT*e[5mC]*eT*eA*e[5mC]*e[5mC]*eA*eG*eT*eG*e[5mC]*e[5mC]*eA*eT*eA) [compound 327899]; 25 percentage of untreated control (UTC)
346921 (AACAACCAGCUAAGACACUGCCA; all 2'-MOE, all phosphorothioate, methylation of C and T or U not given here) [compound 346921]; 52 percentage of untreated control (UTC)

What measured TG (triglyceride accumulation) goes with 327944 (antisense eA*eA*eA*eG*eT*eG*eT*e[5mC]*eA*eG*eA*eT*eA*e[5mC]*eG*eG*eT*eG*eT*eG*eG) [compound 327944] ?
38 percentage of untreated control (UTC)

====

System: T47D cells
test: Cell cycle assay in T47D cells
Type: cell-based, human
studyConditions: 150 nM, 48 hours, relative to untreated control
In the oligonucleotide strings, read from the 5' end, every base follows the letter of its sugar. An asterisk marks phosphorothioate; unmarked linkages are phosphodiester. Other units and linkages are bracketed, terminal groups are in braces. A string of capitals states the bases alone. e = 2'-O-(2-methoxyethyl) (MOE); [5mC] = 5-methylcytosine; d = 2'-deoxy (DNA)
Outcome: satisfied for % cells in cell cycle phase G1 of at least 90%; not satisfied for anything lower.

328403 (antisense eA*eG*eG*e[5mC]*e[5mC]*dT*dA*dT*dT*d[5mC]*d[5mC]*dT*dG*dT*dA*eG*e[5mC]*eA*eA*eA) [compound 328403]; satisfied
25691 (antisense eG*e[5mC]*e[5mC]*eA*eA*dG*dG*d[5mC]*dG*dT*dG*dA*d[5mC]*dA*dT*eG*eA*eT*eA*eT) [compound 25691]; satisfied
328687 (eG*e[5mC]*eT*eT*e[5mC]*d[5mC]*d[5mC]*dA*dG*d[5mC]*dG*dG*d[5mC]*d[5mC]*dT*eA*eT*eA*eG*eT; antisense) [compound 328687]; satisfied

Please check the record 328759 (antisense eG*eA*eG*eG*eG*dA*dT*dT*dG*dT*dA*dT*dG*dA*dA*e[5mC]*eA*eT*e[5mC]*eT) [compound 328759] and state if its % cells in cell cycle phase G1 is at or above 90%.
not satisfied

Please check the record 327905 (antisense e[5mC]*eA*eG*eA*e[5mC]*eT*e[5mC]*e[5mC]*eG*eG*eT*eG*eG*eA*eA*eT*eG*eA*eA*eG*eG*eA) [compound 327905] and state if its % cells in cell cycle phase G1 is at or above 90%.
satisfied

Please check the record 327902 (antisense eG*eG*e[5mC]*eT*eG*eT*e[5mC]*eA*eA*eT*eT*e[5mC]*eA*eT*eA*eG*eG*eT*e[5mC]*eA*eG) [compound 327902] and state if its % cells in cell cycle phase G1 is at or above 90%.
not satisfied

Please check the record 25690 (antisense eA*eT*e[5mC]*e[5mC]*e[5mC]*dT*dT*dT*d[5mC]*dT*dT*d[5mC]*d[5mC]*dG*d[5mC]*eA*eT*eG*eT*eG) [compound 25690] and state if its % cells in cell cycle phase G1 is at or above 90%.
satisfied

====

Tested on: PPARγ
test: PPARγ mRNA expression in adipocytes (real-time PCR)
Format: cell-based, human
studyConditions: adipocytes, 250 nM oligomeric compound, day nine post-transfection, relative to control (1.0); Table 16
In the oligonucleotide strings, read from the 5' end, every base follows the letter of its sugar. An asterisk marks phosphorothioate; unmarked linkages are phosphodiester. Other units and linkages are bracketed, terminal groups are in braces. A string of capitals states the bases alone. e = 2'-O-(2-methoxyethyl) (MOE); [5mC] = 5-methylcytosine
Listing of entries alongside the reported PPAR gamma (mRNA expression).

Study these solved cases before continuing.
327938 (antisense eA*eA*e[5mC]*eA*eA*eT*eA*e[5mC]*eA*eA*e[5mC]*eT*eT*eA*e[5mC]*eT*eA*e[5mC]*e[5mC]*eT*e[5mC]*eA) [compound 327938]; 0.90
327893 (antisense eA*eA*e[5mC]*e[5mC]*eA*e[5mC]*eA*e[5mC]*eA*eA*e[5mC]*e[5mC]*eT*eA*e[5mC]*eT*eA*e[5mC]*e[5mC]*eT*e[5mC]*eA) [compound 327893]; 1.03
327942 (antisense e[5mC]*e[5mC]*eA*eT*e[5mC]*eT*eT*eT*eA*e[5mC]*e[5mC]*eA*eG*eA*e[5mC]*eA*eG*eT*eG*eT*eT) [compound 327942]; 0.87

Read the next record carefully.
What measured PPAR gamma (mRNA expression) goes with 327890 (antisense eA*eG*e[5mC]*eA*e[5mC]*eA*eA*eA*e[5mC]*eT*eA*e[5mC]*eT*eA*e[5mC]*e[5mC]*eT*e[5mC]*eA) [compound 327890] ?
0.94
